B1: P2RY14 (parent)
chain: KLLSVIVWMLMLLLAVPNIILTNQ

variants of: B1; assay: protein stability index of a GFP-peptide fusion (GPS, HEK-293T) (PSI 1-6); higher = more stable; conditions: c terminus: a fixed tail appended;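 further: lentivirally expressed fusions sorted by FACS into six bins by GFP to DsRed ratio, PSI derived from sequencing read proportions per bin multiplied by bin number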
metric: protein stability index
Give bare numbers.

Provide reported protein stability index for each item, in the same order as listed.
1. L10S
2. L14A

Response line:
1: 4.89; 2: 2.24

Go through the items and report each one's protein stability index.
1. A15W
2. V16F

Response line:
1: 2.2; 2: 4.27

Provide each entry's protein stability index from the list below.
1. L14N
2. K1P
3. M11Q
4. Q24W
5. L12Q
6. N23G
7. L2C

Response line:
1: 2.75; 2: 2.13; 3: 1.1; 4: 2.33; 5: 2.51; 6: 2.54; 7: 3.88

For every item in the list below, what is its measured protein stability index?
1. P17G
2. I19F
3. N18F
4. L14H

Response line:
1: 3.39; 2: 2.98; 3: 2.16; 4: 2.92

For every item below, please supply its protein stability index.
1. P17L
2. L10E
3. N18E
4. I19N
5. L3H

Response line:
[2.97, 4.43, 2.5, 3.66, 1.3]

Below are 2 variants. Give each one its protein stability index.
1. I19S
2. V5S

Response line:
1: 2.07; 2: 3.98

The values you see were collected from the supplement of paper PMC10567573.
